- assay_target: acetylcholine receptor
- test: SPR, AchR immobilised, peptide 10 uM
recorded_endpoint: Binding affinity (RU)

input: Determine from records and report Binding affinity (RU) for KKYHVK [6mer-1-660]
output: 31

(A) KKHHER [6mer-1-610]
(B) KKACMR [6mer-1-608]
input: Please let me know which one, A or B , has a lower measured Binding affinity (RU) value. Your choice should be expressed through its label.
output: B
(B: 18 RU, A: 27 RU)

(A) RKKEPK [6mer-1-1076]
(B) KKMTER [6mer-1-662]
input: Please let me know which one, A or B , has a lower measured Binding affinity (RU) value. Your choice should be expressed through its label.
output: B

(I) KRMEPR [6mer-1-630]
(II) RRKSDR [6mer-1-1093]
(III) KRMNDR [6mer-1-654]
input: Rank by Binding affinity (RU) (largest to smallest). API: response body holds the labels in the requested order.
output: II, III, I
(II: 37 RU, III: 23 RU, I: 14 RU)

(a) KRIWVR [6mer-1-1119]
(b) RRCTVR [6mer-1-657]
(c) RKMDAK [6mer-1-629]
input: Rank by Binding affinity (RU) (largest to smallest). API: response body holds the labels in the requested order.
output: a, b, c

(a) KKNTMR [6mer-1-634]
(b) KKCCPK [6mer-1-1084]
input: Please let me know which one, a or b , has a lower measured Binding affinity (RU) value. Your choice should be expressed through its label.
output: a
(a: 12 RU, b: 25 RU)

(I) KRHPFR [6mer-1-1116]
(II) RKFTER [6mer-1-1110]
input: Please let me know which one, I or II , has a lower measured Binding affinity (RU) value. Your choice should be expressed through its label.
output: II
(II: 24 RU, I: 35 RU)

(1) KKFNFK [6mer-1-1114]
(2) RKHPVK [6mer-1-1079]
(3) RKYNVR [6mer-1-647]
input: Rank by Binding affinity (RU) (largest to smallest). API: response body holds the labels in the requested order.
output: 1, 2, 3

(a) KKESHR [6mer-1-638]
(b) RRIAGK [6mer-1-649]
input: Please let me know which one, a or b , has a lower measured Binding affinity (RU) value. Your choice should be expressed through its label.
output: a

Where do these numbers come from? They come from patent US20250011363A1.
